Exercise: state measured Mean fluorescence intensity for each of the binders provided.
- TGT: T1, monkey TIM-3 on CHOK1 stable cell line (CHOK1-cTIM-3) (monkey)
- T1 chain: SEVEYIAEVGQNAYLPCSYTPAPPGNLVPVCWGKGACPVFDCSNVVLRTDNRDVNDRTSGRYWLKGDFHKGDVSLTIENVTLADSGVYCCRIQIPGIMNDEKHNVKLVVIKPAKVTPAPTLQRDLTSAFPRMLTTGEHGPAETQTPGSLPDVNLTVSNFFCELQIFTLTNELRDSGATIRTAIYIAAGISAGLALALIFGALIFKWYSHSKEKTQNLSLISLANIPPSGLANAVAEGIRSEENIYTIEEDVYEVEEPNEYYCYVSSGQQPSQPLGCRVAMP
- ASSAY INFO: FACS, CHOK1-cTIM-3 cells, 0.32 nM antibody
Give bare numbers.

Study these solved cases before continuing.
binder="57F4E5 fully human TIM-3 antibody (human IgG4, kappa) (antibody, V domains shown) VH: EVQLVESGGGLVQPGGSLRLSCAASGFTFSSYWMSWVRQAPGKGLEWVANIKQDGSEKYYVDSVKGRFTISRDSAKNSLYLQMNSLRAEDTAMYFCARDSNFFDYWGQGTLVTVSS VL: ETVMTQSPATLSVSPGERATLSCRASQSVSSNLAWYQRKPGQAPRLLIYFSSTRATGIPARFSGSGSGTEFTLTISSLQSEDFAVYYCQQYNNWPLTFGGGTKVEIK" recorded_value=80.6
binder="7A4F10 fully human TIM-3 antibody (human IgG4, kappa) (antibody, V domains shown) VH: EVQLLESGGGLVQPGGSLRLSCAASGFTFRTHLISWVRQAPGKGLEWVAAITGSGGSTYYADSVKGRFIISRDNSKNTLFLQMNSLRAEDTAVYYCAKDGGSGSYDDFWGQGTLVTVSS VL: ETVLTQSPVTLSLSPGERATLSCRASQSVGSYLAWYQQKPGQAPRLLIYDASNRATGIPARFSGSGSGTDFTLTISSLEPEDFAVYYCQQRSNWPPTFGQGTKVEIK" recorded_value=52.7

Record Mean fluorescence intensity per entry; entries follow.
1. 18D2H2 fully human TIM-3 antibody (human IgG4, kappa) (antibody, V domains shown) VH: EVQLVESGGDLVQPGGSLRLSCAASGFTFSTYWMTWVRQAPGRGLEWVANIKQDGSAKYYVDSVKGRFTLSRDDAKNSLYLQMNSLRAEDTAVYYCARGSNWFDYWGQGTLVTVSS VL: ETVMTQSPATLSVSPGERATLSCRANQNVYSNLAWYQQKPGQAPRLLIYDASTRATGFPARFSGSGSGTEFTLTISSLQSEDFAVYYCQQYNNWPLTFGGGTKVEIK
2. 34B6D8 fully human TIM-3 antibody (human IgG4, kappa) (antibody, V domains shown) VH: EVQLVESGGGLVQPGGSLRLSCAASGFTFSTYWMTWVRQAPGKRLEWVANIKQGGGDKYYVDSVKGRFTISTDNAKNSLYLQMNSLRAEDTAVYYCARGSNWFDPWGQGTLVTVSS VL: EIVMTQSPATLSMSPGERATLSCRASQSVYDNLAWYQQKPGQAPRLLIYGASTRATGIPARFSGSGSGTEFTLTISSLQSEDFALYYCQQYTHWPITFGQGTRLEIK
3. 39E5H1 fully human TIM-3 antibody (human IgG4, kappa) (antibody, V domains shown) VH: EVQLVESGGGLVQPGGSLRLSCAASGFTFSSYWMSWVRQAPGKGLEWVANIKRGGSERYYVDSVKGRFTISGDNAKNSVYLQMNSLRAEDTAVYYCARGSNWFDPWGQGTLVTVSS VL: ETVMTQSPAILSVSPGERATLSCRASQSVYSNLAWYQQKLGQAPRLLIYDASTRATGIPARFSGSGSGTEFTLTISSLQSEDFAVYYCQQYNNWPITFGQGTRLEIK
4. 134H3G6 fully human TIM-3 antibody (human IgG4, kappa) (antibody, V domains shown) VH: EVQLVESGGGLVQPGGSLRLSCAASGFTFSNSWMTWVRQAPGKGLEWVANIKQAGTEKYYVDSVKGRFTISRDNAKNSLYLQMNSLRAEDTAVYYCNSGSNYFDYWGQGTLVTVSS VL: EIVMTQSPATLSVSPGERATLSCRARQNFYSNLAWYQQKPGQAPRLLIYGASTRATGIPARFSGSGSGTEFTLTISSLQSEDFAVYYCQQYNNWPLTFGGGTKVEIK

127
109
132
134
